Kindly supply the reported MIC values for the records listed here.
test system: Proteus mirabilis

Entry under review: `CC(C)C[C@H](NC(=O)[C@H](C)NC(=O)CNC(=O)[C@H](CC(C)C)NC(=O)[C@@H](N)Cc1ccccc1)C(=O)N[C@@H](Cc1ccccc1)C(=O)N[C@@H](CCCCN)C(=O)N[C@@H](CCCCN)C(=O)N[C@@H](C)C(=O)N[C@@H](CO)C(=O)N[C@@H](CCCCN)C(=O)O` . Reported MIC?
≥ 165 µM

And for `CSCC[C@H](NC(=O)[C@H](CC(N)=O)NC(=O)[C@H](CCCN=C(N)N)NC(=O)[C@H](CCC(N)=O)NC(=O)[C@H](Cc1c[nH]c2ccccc12)NC(=O)[C@H](CCC(N)=O)NC(=O)[C@@H](N)Cc1ccccc1)C(=O)N[C@@H](CCCN=C(N)N)C(=O)N[C@@H](CCCCN)C(=O)N[C@H](C(=O)N[C@@H](CCCN=C(N)N)C(=O)O)C(C)C` ?
≥ 1000 µM

And for `CC(C)C[C@H](NC(=O)[C@H](C)NC(=O)CNC(=O)[C@H](CC(C)C)NC(=O)[C@@H](N)Cc1ccccc1)C(=O)N[C@@H](Cc1c[nH]c2ccccc12)C(=O)N[C@@H](CCCCN)C(=O)N[C@H](C(=O)N[C@@H](C)C(=O)N[C@@H](CO)C(=O)N[C@@H](CCCCN)C(=O)O)C(C)C` ?
≥ 164 µM

And for `CC(C)C[C@H](NC(=O)[C@H](C)NC(=O)CNC(=O)[C@H](CC(C)C)NC(=O)[C@@H](N)Cc1ccccc1)C(=O)N[C@@H](Cc1ccccc1)C(=O)N[C@@H](CCCCN)C(=O)N[C@H](C(=O)N[C@@H](C)C(=O)O)C(C)C` ?
≥ 207 µM

----------
test system: Acinetobacter baumannii; assay: ≥ marks a high value that may be exact or a test limit, other limits are often not marked, values filed in µg/mL are converted to µM
MEASURED_ENDPOINT: MIC (µM)
Just the number in µM, nothing appended.

Entry under review: `CC(C)C[C@H](NC(=O)[C@H](CCCN=C(N)N)NC(=O)[C@H](Cc1c[nH]c2ccccc12)NC(=O)[C@H](CCCN=C(N)N)NC(=O)[C@H](Cc1c[nH]c2ccccc12)NC(=O)[C@H](Cc1c[nH]c2ccccc12)NC(=O)[C@H](Cc1c[nH]c2ccccc12)NC(=O)[C@H](CCCN=C(N)N)NC(=O)[C@H](Cc1c[nH]c2ccccc12)NC(=O)[C@H](CCCN=C(N)N)NC(=O)CN)C(N)=O` . Reported MIC?
1

----------
tested on: Pseudomonas aeruginosa ATCC 13388; assay: ≥ marks a high value that may be exact or a test limit, other limits are often not marked, values filed in µg/mL are converted to µM
MEASURED_ENDPOINT: MIC (µM)
Just the number in µM, nothing appended.

Field: MIC (Pseudomonas aeruginosa ATCC 13388). Entry: `CC[C@H](C)[C@H](NC(=O)CN)C(=O)N[C@@H](Cc1cnc[nH]1)C(=O)N[C@@H](CC(=O)O)C(=O)N[C@H](C(=O)N[C@@H](CC(C)C)C(=O)N[C@@H](CCCCN)C(=O)N[C@@H](Cc1ccc(O)cc1)C(=O)NCC(=O)N[C@@H](CCCCN)C(=O)N[C@@H](C)C(=O)N[C@@H](CO)C(N)=O)[C@@H](C)CC`
30

And for `CC[C@H](C)[C@H](NC(=O)CN)C(=O)N[C@@H](Cc1cnc[nH]1)C(=O)N[C@@H](CC(=O)O)C(=O)N[C@@H](C)C(=O)N[C@@H](CC(C)C)C(=O)N[C@@H](CCCCN)C(=O)N[C@@H](Cc1ccc(O)cc1)C(=O)NCC(=O)N[C@@H](CCCCN)C(=O)N1CCC[C@H]1C(=O)N[C@@H](CO)C(N)=O` ?
10

And for `CC[C@H](C)[C@H](NC(=O)CN)C(=O)N[C@@H](Cc1cnc[nH]1)C(=O)N[C@@H](CC(=O)O)C(=O)N[C@H](C(=O)N[C@@H](CC(C)C)C(=O)N[C@@H](CCCCN)C(=O)N[C@@H](Cc1ccc(O)cc1)C(=O)NCC(=O)N[C@@H](CCCCN)C(=O)N[C@@H](CCCCN)C(=O)N[C@@H](CO)C(N)=O)[C@@H](C)CC` ?
20

And for `CC[C@H](C)[C@H](NC(=O)CNC(=O)[C@@H](N)Cc1c[nH]c2ccccc12)C(=O)N[C@@H](Cc1cnc[nH]1)C(=O)N[C@@H](CCCN=C(N)N)C(=O)N[C@H](C(=O)N[C@@H](CC(C)C)C(=O)N[C@@H](CCCCN)C(=O)N[C@@H](Cc1ccc(O)cc1)C(=O)NCC(=O)N[C@@H](CCCCN)C(=O)N1CCC[C@H]1C(=O)N[C@@H](CO)C(=O)O)[C@@H](C)CC` ?
12

Source: DBAASP
